Tested on: NCI-H23 lung
Test: NCI tumour cell line growth inhibition, 48 h; in the data active = GI50 below about 0.43 µM; inactive = the rest
Lab note: assign the record to one of active, inactive

Solved cases (2 shown):
Compound	Category label
N#CC1c2ccccc2-c2ccccc2N1C(=O)c1ccccc1 (centres undefined)	inactive
CC[C@@]1(OC(=O)CN)C(=O)OCc2c1cc1n(c2=O)Cc2cc3cc(N)ccc3nc2-1	active

Request: Which result was noted for this compound in the test: COc1ccccc1C1C(C#N)=C(N)OC2=C1C(=O)CCC2 (centres undefined)
Result: inactive

Request: Which result was noted for this compound in the test: C[C@@H](NC(=O)Cc1cc(F)cc(F)c1)C(=O)N[C@@]1(C)N=C(c2ccccc2)c2ccccc2N(C)C1=O
Result: inactive
